Molecular target: ETS1 (UniProt P14921)
Sequence: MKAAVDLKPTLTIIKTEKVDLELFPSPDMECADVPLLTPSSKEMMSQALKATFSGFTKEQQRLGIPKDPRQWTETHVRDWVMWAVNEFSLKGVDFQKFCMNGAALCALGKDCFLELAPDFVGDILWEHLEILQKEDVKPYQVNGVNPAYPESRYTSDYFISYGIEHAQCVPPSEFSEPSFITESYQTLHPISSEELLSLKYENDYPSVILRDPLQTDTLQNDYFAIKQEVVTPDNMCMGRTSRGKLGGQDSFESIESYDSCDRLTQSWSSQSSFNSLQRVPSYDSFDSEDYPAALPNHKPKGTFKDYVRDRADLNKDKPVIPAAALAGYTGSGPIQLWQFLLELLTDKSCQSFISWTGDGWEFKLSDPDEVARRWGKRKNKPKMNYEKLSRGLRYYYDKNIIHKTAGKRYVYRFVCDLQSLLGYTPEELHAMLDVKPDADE
Test: ETS1 binding intensity (PBM fluorescence) in presence of RUNX1, normalised to ETS1-only experiment (arbitrary fluorescence units); higher = stronger binding
Details: ETS1 concentration 1 nM; RUNX1 concentration 25 nM
We use 2000 as the dividing line for ETS1 binding intensity: on or above the line is True, below is False.

Use the examples below as a reference point.
>>> print(df.to_string())
                          residue_codes  target_or_test_system  label_class
0  AACTTCCGAGGGAACTAACTGGTTTTAACCACATTG  ETS1 (UniProt P14921)        False
1  AAAGACAGGATGTGGGGGAGTGAGCCACAAGGGCCC  ETS1 (UniProt P14921)        False

Lookup: Hi, just wondering whether GCGGCGAACCGGACGCCCCAACCACCCGCCCCCCAC shows ETS1 binding intensity of 2000 or higher.
Found: False

Lookup: Entry GGCAACCTGAGCTTCCGTGTAAAACCACAGTGTGAC please
Found: False

Lookup: Entry CCGGGCTGCGGAAGGCGGGAACTCTGCGGTTCGCGG please
Found: True

Lookup: Entry ACACAGGAAGGACGCACGCTCCCGCCCCAACCACAT please
Found: False

Lookup: Entry CCAGGCGTTTCCGGGTTCCCGCGGTCCCGTCCCCCA please
Found: False

Lookup: Entry CCGGGCGCCACTTCCGGTCCCCGTGGTCACGTGACC please
Found: True

Lookup: Entry ACTTACAAAGGAAGTGACAGAACCACAGAAAAGACC please
Found: True

Lookup: Entry AGCCCGGCTTCCGGCGCGTGCCGCTGCGGCTGCAGG please
Found: False

Lookup: Entry GAACTTCCGGGACCACGTGACGTAGAACCACAACAA please
Found: False

###

Biological target: ETS1 (UniProt P14921)
Sequence: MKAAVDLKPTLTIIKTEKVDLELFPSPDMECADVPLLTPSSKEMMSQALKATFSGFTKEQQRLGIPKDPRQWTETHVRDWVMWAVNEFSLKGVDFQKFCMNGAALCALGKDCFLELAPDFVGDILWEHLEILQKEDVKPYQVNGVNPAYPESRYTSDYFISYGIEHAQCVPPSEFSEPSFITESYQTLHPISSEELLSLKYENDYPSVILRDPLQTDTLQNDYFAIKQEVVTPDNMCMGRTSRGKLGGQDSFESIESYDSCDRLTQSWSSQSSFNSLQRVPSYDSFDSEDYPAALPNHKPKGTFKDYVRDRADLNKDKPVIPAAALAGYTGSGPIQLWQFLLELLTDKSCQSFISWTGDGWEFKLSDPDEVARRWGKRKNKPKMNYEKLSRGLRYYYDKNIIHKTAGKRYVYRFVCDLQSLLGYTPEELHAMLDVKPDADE
Assay: ETS1 binding intensity (PBM fluorescence) in presence of RUNX1, normalised to ETS1-only experiment (arbitrary fluorescence units); higher = stronger binding
Conditions: ETS1 concentration 1 nM; RUNX1 concentration 25 nM
Each record here notes measured ETS1 binding intensity.

Worked examples, 3 sequences total:
                          residue_codes  target_or_test_system  result
0  TCTTGTTTCTTCCGTTACCGGAGCGCGGTCACGTGA  ETS1 (UniProt P14921)     438
1  GGCTTTTCCGGGATCCCTTTCGCCTCATCACCGCAG  ETS1 (UniProt P14921)     301
2  ATTACATCCGGGCTCCGCGACACGCCCGAACCACAA  ETS1 (UniProt P14921)     427

Lookup: What measured ETS1 binding intensity goes with GGCTCGGCAAACATCCGGCTCCGCGGTGGAACGGGA ?
Found: 1910

Lookup: Entry CAGACCAGCCCAGGAAACAAGGAACCACAAAGCCAC please
Found: 2260

Lookup: Entry AGGCGGCAGGAAATGACCCCATCCCGCAGCCTGGGC please
Found: 5190

Lookup: Entry CAGGGCACCTCCTACTTCCCCCCGCAGATAACTACC please
Found: 1010

Lookup: Entry GTGCCTCACCGCTTCCGGCGCTGCGGGATGACGTCA please
Found: 4720

Lookup: Entry TGGATGGCAAGCAACGGAAACCGCAAACAGGGCTGT please
Found: 6230

Lookup: Entry AACCTAGAAAAGGAAGCTGCGGTTTTTCAGGGTATG please
Found: 6430

Lookup: Entry TGCGCCAGCCTTCCTGTCGTGGTCACCGGTGGCAGC please
Found: 400

Lookup: Entry ACGAGGTTGGCCTCATCCGGTGGTTTTCGCAGCACG please
Found: 1280
